# TARGET: T1, 4H3354-bH
# T1 chain: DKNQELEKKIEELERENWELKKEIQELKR
# ASSAY PROTOCOL: two-hybrid library CCNG1;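 also: natural log of median RNA to DNA barcode read ratio; higher means stronger binding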
READOUT LABEL: interaction score

I = DKIQELKKEIEELERENWELKKEIQELKR [4H2586-bH]
II = DKNQELEKKIEELERENWELKKEIQELKR [4H3354-bH]
III = DEIQELEKKIEELKREIWELKKENQELER [4H331-bH]
Task: Ranking field: interaction score; order: falling. Dear reader, please state the labels in the requested order.
Result: II, I, III

Provenance of the data: paper PMC10397247
